Tested on: Ba/F3-CRLF2 cells expressing JAK2 R683G or JAK2 R683G/L884P
Assay: Proliferation, L884P versus no L884P, JAK2 R683G
Assay type: cell-based
Settings: 48 hr
PROPERTY: IC50 fold-shift for cells expressing L884P compared to cells without L884P

C[C@@H]1CN(c2ccc(Nc3ncc4ccn(-c5cc(F)c(CN6CCOCC6)c(F)c5)c4n3)cc2)C[C@H](C)N1 : minimal effects
Fc1cc(-c2cccc3ncc(-c4cnn(C5CCNCC5)c4)nc23)cc(F)c1CN1CCOCC1 : minimal effects
CC(=O)Nc1cc(Oc2ccc3c(nc(Nc4ccc(F)cc4F)n3C)c2C)ccn1 : 4 fold
